Tested Target: T1, human TL1A extracellular domain with N-terminal HIS and FLAG tag (human, UniProt O95150 72-251)
T1 construct: the whole entry is named; also called TNFSF15
T1 sequence: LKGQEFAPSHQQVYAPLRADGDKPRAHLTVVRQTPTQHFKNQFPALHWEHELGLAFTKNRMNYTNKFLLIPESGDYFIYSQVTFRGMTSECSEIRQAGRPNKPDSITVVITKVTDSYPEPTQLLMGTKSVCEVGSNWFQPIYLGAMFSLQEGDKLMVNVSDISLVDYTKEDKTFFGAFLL
Experimental Details: SPR Run 7, antibody on Protein A, TL1A 5 ug/mL, timepoint 44
Here, each record is paired with measured TL1A Binding Level (Early) data.
Measurement Label: TL1A Binding Level (Early) (RU)

320-506 (antibody, human IgG1, name in Kabat numbering, V domains shown, full-length human IgG1, lambda) VH: QVQLVQSGAEVKKPGASVKVSCKASGYTFTSYDINWVRQAPGQGLEWMGWLNSNSGNTGYAQKFQGRVTMTADRSTSTAYMELSSLRSEDTAVYYCAREVPETAAFEYWGQGTLVTVSS VL: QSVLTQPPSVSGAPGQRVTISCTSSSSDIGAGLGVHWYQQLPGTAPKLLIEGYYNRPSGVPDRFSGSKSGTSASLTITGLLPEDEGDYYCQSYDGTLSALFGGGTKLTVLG: 97
320-547 (antibody, human IgG1, name in Kabat numbering, V domains shown, full-length human IgG1, lambda) VH: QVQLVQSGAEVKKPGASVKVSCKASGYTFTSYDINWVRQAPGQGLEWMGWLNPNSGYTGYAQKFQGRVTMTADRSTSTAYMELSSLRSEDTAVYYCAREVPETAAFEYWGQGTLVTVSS VL: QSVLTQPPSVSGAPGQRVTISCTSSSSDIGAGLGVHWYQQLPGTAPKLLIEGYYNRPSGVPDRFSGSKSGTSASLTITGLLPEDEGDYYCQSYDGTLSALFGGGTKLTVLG: 77
320-510 (antibody, human IgG1, name in Kabat numbering, V domains shown, full-length human IgG1, lambda) VH: QVQLVQSGAEVKKPGASVKVSCKASGYTFTSYDINWVRQAPGQGLEWMGWLNKNSGNTGYAQKFQGRVTMTADRSTSTAYMELSSLRSEDTAVYYCAREVPETAAFEYWGQGTLVTVSS VL: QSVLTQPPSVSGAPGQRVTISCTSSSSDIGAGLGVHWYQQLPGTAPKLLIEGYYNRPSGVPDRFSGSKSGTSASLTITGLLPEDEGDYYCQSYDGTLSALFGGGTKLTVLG: 44
320-567 (antibody, human IgG1, name in Kabat numbering, V domains shown, full-length human IgG1, lambda) VH: QVQLVQSGAEVKKPGASVKVSCKASGYTFTSYDINWVRQAPGQGLEWMGWLNPNSGNTGSAQKFQGRVTMTADRSTSTAYMELSSLRSEDTAVYYCAREVPETAAFEYWGQGTLVTVSS VL: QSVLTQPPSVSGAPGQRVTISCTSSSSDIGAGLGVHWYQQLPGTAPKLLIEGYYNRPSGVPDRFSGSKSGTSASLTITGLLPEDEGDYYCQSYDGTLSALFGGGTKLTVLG: 96
320-578 (antibody, human IgG1, name in Kabat numbering, V domains shown, full-length human IgG1, lambda) VH: QVQLVQSGAEVKKPGASVKVSCKASGYTFTSYDINWVRQAPGQGLEWMGWYNPNSGNTGYAQKFQGRVTMTADRSTSTAYMELSSLRSEDTAVYYCAREVPETAAFEYWGQGTLVTVSS VL: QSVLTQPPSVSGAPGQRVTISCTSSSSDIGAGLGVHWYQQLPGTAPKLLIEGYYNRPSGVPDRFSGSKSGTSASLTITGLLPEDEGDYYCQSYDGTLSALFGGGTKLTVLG: 83
